Entries and their pKd
Target: T1, RalA (residues 1–184, Q72L) (UniProt P11233 1-184, Q72L)
T1 construct: RalA small GTPase, residues 1-184, constitutively active Q72L; Loaded with [3H]GTP for SPA, with GMPPNP or GDP for fluorescence polarisation; also called RalA·GTP; [3H]-GTP RalA; source: expressed from pMAT10 as His6-MBP fusion, cleaved from its tag as described previously
T1 sequence (looked up): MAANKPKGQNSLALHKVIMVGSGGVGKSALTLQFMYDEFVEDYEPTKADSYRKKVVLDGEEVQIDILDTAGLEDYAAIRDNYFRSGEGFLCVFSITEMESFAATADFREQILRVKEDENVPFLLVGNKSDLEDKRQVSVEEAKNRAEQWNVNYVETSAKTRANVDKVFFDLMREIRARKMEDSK
Assay: scintillation proximity assay (competition); His-tagged wild-type RLIP76 RBD immobilised on SPA beads, fixed [3H]GTP·RalA (100 nM) or [3H]GTP·RalB (250 nM), competitor RBD or peptide titrated; pure competition model, apparent Kd (Ki)
Conditions: both partners purified
In textbook form, pKd equals minus log to base ten of the concentration in mol/L.

RLIP76 RBD WDASTAY mutant (domain or fragment, RLIP76 residues 423-446 (helix α2); Selected by CIS display; source: E. coli, recombinant; cleaved from its tag) ETQAGIKEEIRRQEFLLNSLHRDLQGGIKDLSKWDRAWEVSTILAALYRKLREA : 6.28

Then there is this binder:
Ask | What does the record list as pKd for RLIP76 RBD WNASELR mutant (domain or fragment, RLIP76 residues 423-446 (helix α2); Selected by CIS display; source: E. coli, recombinant; cleaved from its tag) ETQAGIKEEIRRQEFLLNSLHRDLQGGIKDLSKWNRAWEVSEILLALRRKLREA ?
Reply | 5.56
